STUDY_TARGET: TBK1 (Homo sapiens, UniProt Q9UHD2)
Construct: host or cells: RA1-ISRE beta-lactamase reporter cells
Sequence (Q9UHD2 whole entry): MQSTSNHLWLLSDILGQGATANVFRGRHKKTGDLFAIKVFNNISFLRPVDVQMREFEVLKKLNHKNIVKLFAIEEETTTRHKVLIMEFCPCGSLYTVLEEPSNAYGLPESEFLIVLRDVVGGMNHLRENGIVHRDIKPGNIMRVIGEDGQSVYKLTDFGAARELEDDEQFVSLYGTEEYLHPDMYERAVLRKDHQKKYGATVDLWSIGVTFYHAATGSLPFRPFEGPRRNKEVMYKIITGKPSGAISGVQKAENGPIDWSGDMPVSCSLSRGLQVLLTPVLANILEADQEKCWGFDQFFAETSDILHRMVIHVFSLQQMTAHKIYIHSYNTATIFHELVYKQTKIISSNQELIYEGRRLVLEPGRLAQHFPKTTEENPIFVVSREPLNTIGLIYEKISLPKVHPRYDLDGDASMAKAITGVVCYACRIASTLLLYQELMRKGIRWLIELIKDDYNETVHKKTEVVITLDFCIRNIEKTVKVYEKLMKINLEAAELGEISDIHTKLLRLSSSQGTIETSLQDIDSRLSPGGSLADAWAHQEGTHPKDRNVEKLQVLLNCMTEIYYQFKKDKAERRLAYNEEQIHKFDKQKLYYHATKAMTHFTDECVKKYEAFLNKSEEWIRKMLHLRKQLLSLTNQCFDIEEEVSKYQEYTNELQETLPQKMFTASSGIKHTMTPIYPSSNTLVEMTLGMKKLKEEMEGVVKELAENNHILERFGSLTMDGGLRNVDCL
ASSAY_COMMENT: Inhibition of TBK1 in Cells (TLR3 driven ISRE β-lactamase reporter assay)
Assay type: cell-based
RUN_PARAMETERS: poly IC-LMW stimulation 16 hrs; -log(EC50), EC50 molar; read-out: Inhibition of TBK1 in cells pEC50 (EC) (converted)
MEASURE_NAME: log10(EC50) (log10 of the value in nM)
Answers are given as log10 of EC50 in nM.

The cases that follow already have their log10(EC50) on record.
| MOLECULE | STUDY_TARGET | log10(EC50) |
| --- | --- | --- |
| O=C(Nc1cn2cc(-c3cc(C(=O)N4CCC[C@@H]4C(F)(F)F)n[nH]3)ccc2n1)C1CC1 [Example 52] | TBK1 (Homo sapiens, UniProt Q9UHD2) | 2.17 |
| O=C(NC1CCCC1=O)c1nc(-c2ccc3nc(NC(=O)C4CC4)cn3c2)cs1 (stereo not shown) [Example 91] | TBK1 (Homo sapiens, UniProt Q9UHD2) | 3.71 |
| O=C(Nc1cn2cc(-c3csc(C(=O)N4CCC[C@@H]4C(F)(F)F)n3)ccc2n1)C1CC1 [Example 93] | TBK1 (Homo sapiens, UniProt Q9UHD2) | 2.04 |
| O=C(N[C@H]1CCOC1)c1nc(-c2ccc3nc(NC(=O)C4CC4)cn3c2)cs1 [Example 87] | TBK1 (Homo sapiens, UniProt Q9UHD2) | 3.46 |
| O=C(N[C@H]1CCC[C@H]1O)c1nc(-c2ccc3nc(NC(=O)C4CC4)cn3c2)cs1 [Example 89] | TBK1 (Homo sapiens, UniProt Q9UHD2) | 3.01 |

## Task Query (molecule): COCCN(CC(F)(F)F)C(=O)c1cc(-c2ccc3nc(NC(=O)C4CC4)cn3c2)cs1 [Example 83] ; field requested: log10(EC50)
## Result 2.81

## Task Query (molecule): O=C(N[C@@H]1CCOC1)c1cc(-c2ccc3nc(NC(=O)C4CC4)cn3c2)cs1 [Example 71] ; field requested: log10(EC50)
## Result 3.38

## Task Query (molecule): O=C(NC1CCOCC1)c1cc(-c2ccc3nc(NC(=O)C4CC4)cn3c2)cs1 [Example 66] ; field requested: log10(EC50)
## Result 3.31

## Task Query (molecule): O=C(NCC(O)C(F)(F)F)c1nc(-c2ccc3nc(NC(=O)C4CC4)cn3c2)cs1 (stereo not shown) [Example 115] ; field requested: log10(EC50)
## Result 3.18

----------
STUDY_TARGET: Full length human TBK1 (Homo sapiens, UniProt Q9UHD2)
Construct: Full length human TBK1 with an N-terminal His-tag; His-tag (N); made in house; host or cells: Sf9 insect cells (baculovirus, pFastBac1)
Sequence (Q9UHD2 whole entry): as above
ASSAY_COMMENT: Inhibition of TBK1 Enzyme (Caliper microfluidic assay)
Type: biochemical
RUN_PARAMETERS: 25 μM ATP, 60 min at RT; -log(IC50), IC50 molar; read-out: TBK1 Inhibition (pIC50) (converted)
MEASURE_NAME: IC50
Returns: string containing the number followed by the unit.

The cases that follow already have their IC50 on record.
| COMPOUND | IC50 |
| --- | --- |
| O=C(NCC(F)F)c1nc(-c2cn3cc(NC(=O)C4CC4)nc3cn2)cs1 [Example 5] | 10 nM |
| CC(=O)Nc1cn2cc(-c3csc(C(=O)NCC(F)(F)F)c3)ccc2n1 [Example 13] | 25.1 nM |
| O=C(Nc1cn2cc(-c3cc(C(=O)N4CCC[C@@H]4C(F)(F)F)n[nH]3)ccc2n1)C1CC1 [Example 52] | 6.31 nM |
| O=C(NCC(F)(F)F)c1cc(-c2cn3cc(NC(=O)C4CC4)nc3cn2)cs1 [Example 33] | 5.01 nM |

Now look at this entry.
## Task Query (compound): CC(C)C(NC(=O)c1cc(-c2ccc3nc(NC(=O)C4CC4)cn3c2)cs1)C(F)(F)F (centres unmarked) [Example 117] ; field requested: IC50
## Result 50.1 nM

Ref: patent US9598424B2
